Data provenance is patent US20250136581A1.

# TARGET ENTITY: human α3β3γ2 receptors (Homo sapiens (Human), UniProt P18507+P34903)
# METHOD NOTES: 3H-flunitrazepam competition binding, human α3β3γ2 GABAA receptor
# CONDITIONS: HEK293 cell membranes, 1 nM 3H-flunitrazepam; read-out: Ki α3
READOUT NAME: pKi
Worth noting: pKi values are minus log10 of concentrations stated in mol/L.

Worked examples follow.
COMPOUND	TARGET ENTITY	pKi
Cc1nnn(-c2ccc(C(F)F)cc2)c1COc1ccc(N2CC(=O)N3CCOC[C@H]3C2)nn1 [Example 173]	human α3β3γ2 receptors (Homo sapiens (Human), UniProt P18507+P34903)	7.85
Cc1nnn(-c2ccc(C(F)F)cc2)c1COc1ccc(N2CCN3CC(C4CC4)NC(=O)[C@@H]3C2)nn1 (single isomer, unassigned) [Example 204]	human α3β3γ2 receptors (Homo sapiens (Human), UniProt P18507+P34903)	7.30

// field: pKi; key: Cc1nnn(-c2ccc(C(F)F)cc2)c1COc1ccc(N2CCN(CCN3CCCC3)C(=O)C2)nn1 [Example 61] ; value = 7.88

// field: pKi; key: Cc1nnn(-c2ccc(C(F)F)cc2)c1COc1ccc(N2C[C@H]3C[C@@H]2C(=O)N3)nn1 [Example 116] ; value = 7.64

// field: pKi; key: Cc1nnn(-c2ccc(C(F)F)cc2)c1COc1ccc(N2CCN(C)C(=O)C2)nn1 [Example 26] ; value = 7.63

====

Listed next: entries and their corresponding inhibition at 0.1 µM.
# TARGET ENTITY: α5-GABAA receptor (α5, β3, γ2 subunits) (Homo sapiens (Human), UniProt P18507+P31644)
# METHOD NOTES: Whole cell patch clamp, inverse agonist efficacy in HEK293 cells expressing α5-GABAA receptor
# Format: cell-based
# CONDITIONS: HEK293, drug 100 nM, GABA 0.05 μM, −60 mV; read-out: Compound inverse agonist efficacy %
Form entry: value (%) — number only.

Worked examples follow.
MOLECULE	inhibition at 0.1 µM / %
Cc1nnn(-c2ccc(C(F)F)cc2F)c1COc1ccc(N2CCN3CCNC(=O)[C@@H]3C2)nn1 [Example 168]	42.4
Cc1nnn(-c2ccc(C(F)F)cc2)c1COc1ccc(N2CCNC(=O)C2C)nn1 (stereo not shown) [Example 11]	49.1
Cc1nnn(-c2ccc(C(F)F)cc2)c1COc1ccc(N2CCN(C)C(=O)C2)nn1 [Example 26]	50.3

Hey, α5-GABAA receptor (α5, β3, γ2 subunits) (Homo sapiens (Human), UniProt P18507+P31644) data for Cc1nnn(-c2ccc(C(F)F)cc2)c1COc1ccc(N2CC(C(=O)NC(C)C)C2)nn1 [Example 155] : inhibition at 0.1 µM came out at 42.3

Hey, α5-GABAA receptor (α5, β3, γ2 subunits) (Homo sapiens (Human), UniProt P18507+P31644) data for Cc1nnn(-c2ccc(C(F)F)cc2)c1COc1ccc(N2CC(C(=O)NC3CCOCC3)C2)nn1 [Example 50] : inhibition at 0.1 µM came out at 41.5

Hey, α5-GABAA receptor (α5, β3, γ2 subunits) (Homo sapiens (Human), UniProt P18507+P31644) data for Cn1nnc(-c2ccc(F)cc2)c1COc1ccc(N2CCNC(=O)C2)nn1 [Example 128] : inhibition at 0.1 µM came out at 53.9

Hey, α5-GABAA receptor (α5, β3, γ2 subunits) (Homo sapiens (Human), UniProt P18507+P31644) data for Cc1nnn(-c2ccc(C(F)F)cc2)c1COc1ccc(N2CC(C(=O)O)C2)nn1 [Example 37] : inhibition at 0.1 µM came out at 50.6

Hey, α5-GABAA receptor (α5, β3, γ2 subunits) (Homo sapiens (Human), UniProt P18507+P31644) data for Cn1nnc(-c2ccc(C(F)F)cc2)c1COc1ccc(N2CCNC(=O)C2)nn1 [Example 127] : inhibition at 0.1 µM came out at 55

Hey, α5-GABAA receptor (α5, β3, γ2 subunits) (Homo sapiens (Human), UniProt P18507+P31644) data for Cc1nnn(-c2ccc(C(F)F)cc2)c1COc1ccc(N2CC(C(=O)N3CCOCC3)C2)nn1 [Example 104] : inhibition at 0.1 µM came out at 49.9

Hey, α5-GABAA receptor (α5, β3, γ2 subunits) (Homo sapiens (Human), UniProt P18507+P31644) data for Cc1nnn(-c2ccc(C(F)F)cc2)c1COc1ccc(N2CC(C(=O)Nc3ccncc3)C2)nn1 [Example 52] : inhibition at 0.1 µM came out at 45.9

Hey, α5-GABAA receptor (α5, β3, γ2 subunits) (Homo sapiens (Human), UniProt P18507+P31644) data for Cc1nnn(-c2ccc(C(F)F)cc2)c1COc1ccc(N2CC(=O)NC3(CC3)C2)nn1 [Example 8] : inhibition at 0.1 µM came out at 40.4

Hey, α5-GABAA receptor (α5, β3, γ2 subunits) (Homo sapiens (Human), UniProt P18507+P31644) data for Cc1nnn(-c2ccc(C(F)F)cc2)c1COc1ccc(N2CCN[C@H](C(=O)O)C2)nn1 [Example 27] : inhibition at 0.1 µM came out at 59.1

Hey, α5-GABAA receptor (α5, β3, γ2 subunits) (Homo sapiens (Human), UniProt P18507+P31644) data for Cc1nnn(-c2ccc(C(F)F)cc2)c1COc1ccc(N2CC(=O)N3CCNCC3C2)nn1 (stereo not shown) [Example 68] : inhibition at 0.1 µM came out at 50.5

Hey, α5-GABAA receptor (α5, β3, γ2 subunits) (Homo sapiens (Human), UniProt P18507+P31644) data for Cc1nnn(-c2ccc(C(F)F)cc2)c1COc1ccc(N2CCN3CCN(C4COC4)C(=O)[C@@H]3C2)nn1 [Example 147] : inhibition at 0.1 µM came out at 54.5

Hey, α5-GABAA receptor (α5, β3, γ2 subunits) (Homo sapiens (Human), UniProt P18507+P31644) data for Cc1nnn(-c2ccc(C(F)F)cc2)c1COc1ccc(N2CCN3CCNC(=O)[C@@H]3C2)cn1 [Example 56] : inhibition at 0.1 µM came out at 53.4

Hey, α5-GABAA receptor (α5, β3, γ2 subunits) (Homo sapiens (Human), UniProt P18507+P31644) data for O=C(O)c1ccc(CCCN2CCN(c3ccc(OCc4c(Cl)nnn4-c4ccc(C(F)F)cc4)nn3)CC2=O)cc1 [Example 146] : inhibition at 0.1 µM came out at 56.5
